Target desc: ERN1 (human)
Assay comment: KINOMEscan competition binding
Settings: compound 10.0 µM
Note to self: kinase still bound, per cent of control under 70% means Criterion met, ties and anything higher get Criterion not met.

Compound structure string: CC(=O)c1c(C)c2cnc(Nc3ccc(N4CCNCC4)cn3)nc2n(C2CCCC2)c1=O
Class assignment: Criterion met
--
Compound structure string: N#Cc1cc(-c2ccnc(Nc3ccc(-n4cnc(-c5cccnc5)n4)cc3)n2)cc(N2CCOCC2)c1
Class assignment: Criterion met
--
Compound structure string: CCN(CCO)CCCOc1ccc2c(Nc3cc(CC(=O)Nc4cccc(F)c4)[nH]n3)ncnc2c1
Class assignment: Criterion met
--
Compound structure string: CNC(=O)Nc1ccc(-c2nc(N3CC4CCC(C3)O4)c3cnn(C4CCC5(CC4)OCCO5)c3n2)cc1
Class assignment: Criterion not met
--
Compound structure string: COc1cc2c(Nc3ccc(NC(=O)c4ccccc4)cc3)ncnc2cc1OCCCN1CCOCC1
Class assignment: Criterion not met
--
Compound structure string: CCCS(=O)(=O)Nc1ccc(F)c(C(=O)c2c[nH]c3ncc(Cl)cc23)c1F
Class assignment: Criterion not met
--
Compound structure string: COc1cc2ncnc(Nc3cccc(Cl)c3)c2cc1OC
Class assignment: Criterion met
--
Compound structure string: CCOc1cc(N2CCC(O)CC2)ccc1Nc1ncc2c(n1)N(C)c1ccccc1C(=O)N2C
Class assignment: Criterion not met
--
Compound structure string: N#C/C(=C1/Nc2ccccc2S1)c1ccnc(NCCc2cccnc2)n1
Class assignment: Criterion not met
--
Compound structure string: Cc1cn(-c2cc(C(=O)Nc3ccc(C)c(NC(=O)c4ccno4)c3)cc(C(F)(F)F)c2)cn1
Class assignment: Criterion not met
--
Compound structure string: O=c1[nH]c2ccccc2n1C1CCN(Cc2ccc(-c3nc4cc5[nH]cnc5cc4nc3-c3ccccc3)cc2)CC1
Class assignment: Criterion met
--
Compound structure string: CCc1nc(-c2cccc(C)c2)c(-c2ccnc(NC(=O)c3ccccc3)c2)s1
Class assignment: Criterion not met
--
Compound structure string: C=CC(=O)Nc1ccc(C(=O)c2sc(Nc3ccc(N4CCN(C)CC4)cc3OC)nc2N)cc1
Class assignment: Criterion met
